# System: CCRIS mutagenicity, Ames/micronucleus/aberration tests
# test: CCRIS mutagenicity studies
# experimental.parameters: Test System: AMES SALMONELLA TYPHIMURIUM; Strain/Indicator: TA98; Metabolic Activation: RAT, LIVER, S-9, PCB; Method: PREINCUBATION
Active and inactive are the calls of the source. The rule behind the calls is not given here.
// classify into y for active, n for inactive

Please review the following examples before continuing.
INSERT INTO assay_data (chemical_smiles, class) VALUES
  ('Cc1cc(=O)n(-c2ccccc2)n1C', 'n'),
  ('[O-][n+]1cc2ncccc2cn1', 'n'),
  ('Nc1cccc2nc3ccccc3nc12', 'n'),
  ('CCOc1ccc(NC(C)=O)cc1', 'n');

Enquiry: Answer briefly: the call reported for O=CC(=O)c1ccccc1 in this assay.
Return: n

Enquiry: Answer briefly: the call reported for NNc1nncc2ncccc12 in this assay.
Return: y

Enquiry: Answer briefly: the call reported for Nc1ccc(Sc2ccc(N)cc2)cc1 in this assay.
Return: y

Enquiry: Answer briefly: the call reported for Cc1ccc(N=[N+]([O-])c2ccc(C)c(N)c2)cc1N in this assay.
Return: y

----------
# Tested on: CCRIS mutagenicity, Ames/micronucleus/aberration tests
# test: CCRIS mutagenicity studies
# experimental.parameters: Test System: MOUSE LYMPHOMA; Strain/Indicator: L5178Y (TK+/TK-); Metabolic Activation: RAT, LIVER, S-9, AROCLOR 1254; Method: SUSPENSION/PLATE
Calls of active or inactive are those of the source. No rule for the calls is given here.
// classify into TRUE (active), FALSE (inactive)

INSERT INTO results (chemical_smiles, system_name, class) VALUES
  ('CC(C)CCCCCCOC(=O)CCCCC(=O)OCCCCCCC(C)C', 'CCRIS mutagenicity, Ames/micronucleus/aberration tests', 'FALSE'),
  ('F', 'CCRIS mutagenicity, Ames/micronucleus/aberration tests', 'TRUE'),
  ('ClC/C=C/CCl', 'CCRIS mutagenicity, Ames/micronucleus/aberration tests', 'TRUE'),
  ('C1O[C@@H]1[C@H]1CO1', 'CCRIS mutagenicity, Ames/micronucleus/aberration tests', 'TRUE'),
  ('CNNCc1ccc(C(=O)NC(C)C)cc1', 'CCRIS mutagenicity, Ames/micronucleus/aberration tests', 'TRUE'),
  ('Nc1ccccc1', 'CCRIS mutagenicity, Ames/micronucleus/aberration tests', 'TRUE'),
  ('CN(C)P(=O)(N(C)C)N(C)C', 'CCRIS mutagenicity, Ames/micronucleus/aberration tests', 'FALSE'),
  ('Cc1cc(S(=O)(=O)O)c(N)cc1Cl', 'CCRIS mutagenicity, Ames/micronucleus/aberration tests', 'FALSE');

Read the next record carefully.
Enquiry: Answer briefly: the call reported for Clc1nc2ccccc2nc1Cl in this assay.
Return: TRUE

----------
# System: CCRIS mutagenicity, Ames/micronucleus/aberration tests
# test: CCRIS mutagenicity studies
# experimental.parameters: Test System: AMES SALMONELLA TYPHIMURIUM; Strain/Indicator: TA100; Metabolic Activation: NONE; Method: STANDARD PLATE
Activity calls are given as the source filed them. No rule for the calls is given here.
// classify into Yes (active), No (inactive)

Enquiry: Answer briefly: the call reported for CCCC(=O)Nc1snc2ccccc12 in this assay.
Return: No

Enquiry: Answer briefly: the call reported for ClC=C(Cl)Cl in this assay.
Return: No

Enquiry: Answer briefly: the call reported for C[n+]1c2n(c(=O)c3ccccc31)CCc1c-2[nH]c2ccccc12 in this assay.
Return: No

Enquiry: Answer briefly: the call reported for Clc1nc2ccccc2nc1Cl in this assay.
Return: No

Enquiry: Answer briefly: the call reported for CC1NC(C(=O)O)Cc2c1[nH]c1ccccc21 (configuration not stated) in this assay.
Return: No

Enquiry: Answer briefly: the call reported for CC1(C)COC1=O in this assay.
Return: Yes

Enquiry: Answer briefly: the call reported for c1ccc(Cc2ccc(CC3CO3)cc2)cc1 (configuration not stated) in this assay.
Return: Yes

Enquiry: Answer briefly: the call reported for COC(C)(C)C in this assay.
Return: No

Enquiry: Answer briefly: the call reported for CCNc1nc(NC(C)C)[nH]c(=O)n1 in this assay.
Return: No

Enquiry: Answer briefly: the call reported for O=[N+]([O-])c1ccc2nscc2c1 in this assay.
Return: Yes
